system: SR leukemia; test: NCI tumour cell line growth inhibition, 48 h
Where a SMILES comes first, the peptide text is derived from it. [ ]: non-standard residue; d: D form. The star is where a group is joined. Phe(4-NO2) = N[CH](Cc1ccc([N+](=O)[O-])cc1)C(=O)O; Boc = CC(C)(C)OC(=O)*; OtBu = CC(C)(C)O*
Endpoint Label: TGI

Cc1cccc(N2C(=O)/C(=C/c3ccc(N(CCC#N)CCC#N)cc3C)N=C2c2cc([N+](=O)[O-])ccc2Cl)c1 | > 100 µM
CN1CCN(C(=S)SCN2C(=O)c3ccccc3S2(=O)=O)CC1 | 13.4 µM
COc1ccc(S(=O)(=O)Nc2ccc(-c3csc(N4C(=O)/C(=C/C=C\c5ccccc5)N=C4c4ccccc4)n3)cc2)cc1Cl | > 100 µM
C/C(=C/CC[C@](C)(OC1OC(CO)C(O)C(O)C1O)[C@H]1CC[C@]2(C)[C@@H]1CC[C@@H]1[C@@]3(C)CC[C@H](O)C(C)(C)[C@@H]3C[C@H](O)[C@]12C)CO (some centres not stated) | > 100 µM
O=C(O)CCCc1nc2c(n1-c1ccccc1)C(=O)c1ccccc1C2=O | > 100 µM
CCOC(=O)Cc1csc(NC(=O)C(OC(=O)c2ccc(N)cc2)c2ccccc2)n1 (configuration not stated) | > 100 µM
COc1ccccc1NC(=O)C(=O)C1C(=O)Nc2ccccc2S1=O (configuration not stated) | > 100 µM
C=C(C)[C@]12CC(C)C34OC(/C=C\C=C\CCCCCCCCC)(O[C@@H]1[C@@H]3[C@@H]1O[C@]1(CO)[C@@H](O)[C@]1(O)C(=O)C(C)=C[C@@H]41)O2 (some centres not stated) | 15.8 µM
CC(C)=C1CCC(CN2CCCC2)C1=O (configuration not stated) | 35.9 µM
O=C1c2ccccc2C(=O)c2c1ccc1c3ccccc3n(Cc3ccccc3)c21 | > 100 µM
COC(=O)C(Cc1ccccc1)NC(=O)CCCNC(=O)OCc1ccccc1 (configuration not stated) | > 100 µM
CCC1(N2C(=O)c3c(F)c(F)c(F)c(F)c3C2=O)C(=O)NC(=O)N(c2ccccc2)C1=O (configuration not stated) | 4.32 µM
CSC1(SC)CCCCCCCCCCC1 | > 100 µM
c1ccc(C/C(=N\Nc2nc3ccccc3o2)c2ccccn2)cc1 | 2.05 µM
COC(=O)C(=O)C(C(=O)C(=O)Nc1ccccc1C(N)=O)c1nc2ccc(C(=O)c3ccccc3)cc2[nH]c1=O (configuration not stated) | > 100 µM
C=C1c2nc3ccccc3n2C=C(c2ccccc2)N1c1ccc(OC)cc1 | > 100 µM
C[C@@H](C[C@@H](O)[C@H](O)C(C)(C)O)[C@H]1CC=C2[C@]3(C)[C@H](O)C[C@H]4C(C)(C)[C@H](O)CC[C@]4(C)[C@H]3CC[C@@]21C | > 100 µM
COC(=O)C(Cc1ccc([N+](=O)[O-])cc1)NC(=O)C(CC(=O)OC(C)(C)C)NC(=O)OC(C)(C)C (configuration not stated) (Boc-Asp(OtBu)-[Phe(4-NO2)]-OMe; configuration not given here) | 54 µM
O=C(O)c1ccccc1-c1ccccc1C(=O)c1ccccc1 | > 100 µM
Cc1csc(Nc2nc(-c3cccc(Cl)c3)nc(C(Cl)(Cl)Cl)n2)n1 | > 33.3 µM
CC(=O)Nc1ccc(-n2cnc3cc(-c4ccc(OCCN5CCCCC5)cc4)ccc32)cc1 | 3.74 µM
CC(=O)OCC1OC(n2c3c(c(-c4ccco4)c(C#N)c2=S)CCCC3)C(OC(C)=O)C(OC(C)=O)C1OC(C)=O (configuration not stated) | > 31.6 µM
CC(=O)N[C@@H]1CCC[C@H](C(=O)Nc2cc(-c3cnn4c3CC(C)(C)C4)c(Cl)cn2)C1 | 1.21 µM
COc1cc2cc3c4c(cc(OC)c(OC)c4c2cc1OC)CCN3C(=O)OCCBr | > 100 µM
CCOP(=O)(OCC)C(F)(F)CC1CCCCC1 | > 10 µM
C/C=C\C(CC(=O)O)CC(=O)NCCC1CN(S(=O)(=O)C(F)(F)F)c2ccccc21 (configuration not stated) | > 100 µM
CC(C)C[C@H](NC(=O)[C@@H](O)[C@H](N)Cc1ccccc1)C(=O)O | > 100 µM

====

test system: MDA-MB-435; assay: NCI tumour cell line growth inhibition, 48 h
Endpoint Label: TGI (µM)

O=C(CCCN1CCc2[nH]c3cc(F)ccc3c2C1)c1ccc(F)cc1 | 25.6
CN(C)CCn1c(=O)c2ccc(NCCNCCO)c3c(=O)c4cc(O)ccc4n(c1=O)c23 | 6.53
COc1ccc(N=C2NN=C(c3c[nH]c4ccccc34)CS2)cc1OC | 4
C=CC[PH+](c1ccccc1)c1ccccc1.C=CC[PH+](c1ccccc1)c1ccccc1.[Cl][Pt][Cl] | 28.9
CN(C)CCNc1nc2ccccc2c2c1C(=O)c1ccccc1-2 | 1.12
C#Cc1cccc(Nc2ncnc3ccc(-c4cncc(NS(C)(=O)=O)c4)cc23)c1 | 13.7
COC(=O)Nc1nc2ccc(Sc3ccc(NC(=O)Nc4cc(C(F)(F)F)ccc4F)cc3)cc2[nH]1 | 2.71
COc1cc(/C=C\c2cccnc2Nc2ccccc2)cc(OC)c1OC | 43.3

====

system: HL-60(TB) leukemia; test: NCI tumour cell line growth inhibition, 48 h
// reported TGI for each item listed
Endpoint Label: TGI (µM)

c1ccc(C/C(=N\Nc2nc3ccccc3o2)c2ccccn2)cc1 | 1.68
CC(C)=C1CCC(CN2CCCC2)C1=O (stereo not given) | 50.8
CC(=O)Nc1ccc(-n2cnc3cc(-c4ccc(OCCN5CCCCC5)cc4)ccc32)cc1 | 18.2
O=C1CC2Sc3ccccc3N=C2N1c1ccc(Cl)cc1Cl (stereo not given) | 72.1
O=C(O)c1ccc(Nc2cnc3ccc(C(F)(F)F)cc3n2)cc1 | 20.7
C[C@@H](C[C@@H](O)[C@H](O)C(C)(C)O)[C@H]1CC=C2[C@]3(C)[C@H](O)C[C@H]4C(C)(C)[C@H](O)CC[C@]4(C)[C@H]3CC[C@@]21C | 40.5

====

TGI: recorded values
test system: SK-OV-3 ovarian; test: NCI tumour cell line growth inhibition, 48 h
Where a SMILES comes first, the peptide text is derived from it. [ ]: non-standard residue; d: D form. The star is where a group is joined. Phe(4-NO2) = N[CH](Cc1ccc([N+](=O)[O-])cc1)C(=O)O; Boc = CC(C)(C)OC(=O)*; OtBu = CC(C)(C)O*
Endpoint Label: TGI

Clc1ccccc1C1=NN(c2ccccc2)C2c3cc(Br)ccc3OCC12 (centres undefined) | > 100 µM
CCCCCCCCCCCCCCCC(=O)OCC1OC(n2ccc(N)nc2=O)C(O)C1O (centres undefined) | > 100 µM
COC(=O)C(Cc1ccc([N+](=O)[O-])cc1)NC(=O)C(CC(=O)OC(C)(C)C)NC(=O)OC(C)(C)C (centres undefined) (Boc-Asp(OtBu)-[Phe(4-NO2)]-OMe; configuration not given here) | > 100 µM
COC1(OC)N=C(N)C2(C#N)/C(=N/N(C)C)CC(C)C12C#N (centres undefined) | > 100 µM

====

tested on: NCI-H23 lung; assay: NCI tumour cell line growth inhibition, 48 h
Endpoint Label: GI50

Cc1csc(Nc2nc(-c3cccc(Cl)c3)nc(C(Cl)(Cl)Cl)n2)n1 | 23.7 µM
COc1cc(C(=O)N/N=C/c2cccc([N+](=O)[O-])c2)cc(OC)c1OC | 5.96 µM
CN(C)c1ccc(Sc2ccc3nc(N)nc(N)c3c2)cc1 | 0.665 µM
O=[N+]([O-])c1cccc(-c2ncc(-c3ccc(Cl)cc3Cl)[nH]2)c1 | 10.6 µM
C=C(C)[C@@H]1CCC[C@]2(C(=O)O)CC[C@]3(C)[C@@H](CC[C@@H]4[C@@]5(C)C/C(=C/c6ccncc6)C(=O)C(C)(C)[C@@H]5CC[C@]43C)[C@@H]12 | 3.33 µM

====

tested on: NCI-H226 lung; assay: NCI tumour cell line growth inhibition, 48 h
Endpoint Label: GI50

OCCCCC#Cc1ccccc1C#Cc1cnccn1 | 40 µM
C=CC[PH+](c1ccccc1)c1ccccc1.C=CC[PH+](c1ccccc1)c1ccccc1.[Cl][Pt][Cl] | 16.1 µM
CCOC(=O)Cc1csc(NC(=O)C(OC(=O)c2ccc(N)cc2)c2ccccc2)n1 (stereo not given) | 60 µM
CCNC(=O)Oc1ccc(/C(=C(\C)c2ccc(Cl)cc2)c2ccc(OCCN3CCCCC3)cc2)cc1 | 14.4 µM
Nc1ccc2c(c1)CN1C(=O)c3ccccc3C1=N2 | 36.8 µM

====

test system: DU-145 prostate; experiment: NCI tumour cell line growth inhibition, 48 h
Where a SMILES comes first, the peptide text is derived from it. The star is where a group is joined. Palmitoyl = CCCCCCCCCCCCCCCC(=O)*
Endpoint Label: TGI

COC(=O)c1ccc(OCc2ccc3nc(-c4ccccc4)c(Cl)nc3c2)cc1 | > 100 µM
CC(=O)Nc1ccc(-n2cnc3cc(-c4ccc(OCCN5CCCCC5)cc4)ccc32)cc1 | > 33.3 µM
C/C=C\C(CC(=O)O)CC(=O)NCCC1CN(S(=O)(=O)C(F)(F)F)c2ccccc21 (stereo not drawn) | > 100 µM
CSC1(SC)CCCCCCCCCCC1 | > 100 µM
O=C(Nc1ccccc1)N1N=C(c2ccccc2)C1c1ccccc1 (stereo not drawn) | > 100 µM
O=[N+]([O-])c1cccc(-c2ncc(-c3ccc(Cl)cc3Cl)[nH]2)c1 | 10.5 µM
COC(=O)CNC(=O)/C=C/[C@H](O[Si](C)(C)C(C)(C)C)[C@H](/C=C/C(=O)NCC(=O)OC)O[Si](C)(C)C(C)(C)C | > 25 µM
CCCCCCCCCCCCCCCC(=O)NC(CCCCN)C(=O)NCC(=O)NC(Cc1ccccc1)C(=O)N1CCCC1C(=O)NC(CO)C(=O)NC(Cc1ccc(O)cc1)C(=O)NC(CCCCN)C(=O)NC(CC(C)C)C(=O)NC(CCCN=C(N)N)C(=O)N1CCCC1C(=O)NCC(N)=O (stereo not drawn) (Palmitoyl-KGFPSYKLRPG-NH2; configuration not given here) | 49.4 µM
COc1cc2c(cc1OC)C1Cc3ccccc3CN1CCC2 (stereo not drawn) | > 100 µM
CC1SC2(CCCCC2)N(NC(=O)c2[nH]c3ccc(F)cc3c2-c2ccccc2)C1=O (stereo not drawn) | > 100 µM
c1csc(-c2ccc(-c3ccc(-c4cccs4)s3)s2)c1 | > 100 µM
CCSc1nc(N)c2cnn(C)c2n1 | > 100 µM
COc1cc(C2S/C(=C/c3ccccc3)C(=O)N2c2ccc(Cl)cc2)cc(OC)c1OC (stereo not drawn) | > 100 µM
C=CC(C)(C)n1cc(C2=C(O)C(=O)C(c3cn(C(C)(C)C=C)c4ccccc34)=C(OC(C)=O)C2=O)c2ccccc21 | 2.23 µM
CN1c2ccccc2C(=O)Nc2cnc(Cl)nc21 | > 100 µM
CC(C)(C)c1ccc(S(=O)(=O)N[C@H]2CC[C@H]3[C@@H]4CCc5cc(O)ccc5[C@H]4CC[C@]23C)cc1 | 12.9 µM
CCC1(O)CN(CCOC)[C@H]2C[C@@H]1C(=O)c1[nH]c3ccccc3c12 (stereo partly drawn) | > 100 µM
CCCCCCCCCCCCCCCCCC1=NC(C)(C)CN1CCO | 3.27 µM
